Recorded log10 half-life at 10.4 mg mL^-1 by entry
Assay: Protease stability, commercial trypsin digestion
Type: in vitro ADME, bovine
Conditions: bovine trypsin 1 mg mL^−1 in 50 mM Tris–HCl pH 8.8, 100 mM NaCl; 5 μL added to 200 μL of 10.7 mg mL^−1 peptide; room temperature; HPLC; read-out: Degradation half life, Trypsin
Bridges are numbered along the chain shown (N, C = ends). Where no end group is shown, it is not given here.
Attribute Measured: log10 half-life at 10.4 mg mL^-1 (log10 of the value in h)

Seq String	log10 half-life at 10.4 mg mL^-1
EPDEICAARMTNKEFTYKSNVCNNCGDQVAACEAECFRNDVYTACHEAQKG (disulfide 6-36, 22-32, 25-45) [Mutant R7A]	0.34
EPDEICRARMTNAEFTYKSNVCNNCGDQVAACEAECFRNDVYTACHEAQKG (disulfide 6-36, 22-32, 25-45) [Mutant K13A]	0.69
EPDEICRARMTNKEFTYASNVCNNCGDQVAACEAECFRNDVYTACHEAQKG (disulfide 6-36, 22-32, 25-45) [Mutant K18A]	1.30
EPDEICRARMTNKEFTYKSNVCNNCGDQVAACEAECFRNDVYTACHEAQKG (disulfide 6-36, 22-32, 25-45) [Ta1b]	0.68
EPDEICRARMTNKEFTYKSNVCNNCGDQVAACEAECFANDVYTACHEAQKG (disulfide 6-36, 22-32, 25-45) [Mutant R38A]	1.49
